System: erythrocytic stages of P. falciparum NF54
Experiment: Plasmodium falciparum in vitro assay, [3H] hypoxanthine incorporation
Type: cell-based
Conditions: P. falciparum NF54 in human red blood cells; screening medium with Albumax (5 g/L); 48 h + 24 h incubation; read-out: IC50 on NF54 (with Albumax)
Description: In Vitro Antimalarial Activity: Plasmodium falciparum In Vitro Assay In vitro activity against erythrocytic stages of P. falciparum in human red blood cells is determined using a [^3H] hypoxanthine incorporation assay. […] The dried filters are inserted into a plastic foil with 10 mL of scintillation fluid, and counted in a Betaplate liquid scintillation counter. IC50 values are calculated from sigmoidal inhibition curves using Microsoft Excel.
parameter: pIC50
Numbers only, as −log10 of the molar value.

So, CC(=O)Nc1ccc(C=CC(=O)N(Cc2ccc(N3CCN(C(C)=O)CC3)cc2)[C@@H](Cc2ccccc2)C(=O)N2CCN(Cc3ccc(N(C)C)cc3)CC2)cc1 ? Its pIC50 was 8.37

* * *

system: erythrocytic stages of P. falciparum NF54; assay: Plasmodium falciparum in vitro assay, [3H] hypoxanthine incorporation; type: cell-based; details: P. falciparum NF54 in human red blood cells; screening medium with human serum (50% final concentration); 48 h + 24 h incubation; read-out: IC50 on NF54 (with 50% Serum)
parameter: pIC50
One number for each entry, as −log10 of the molar value.

Summary: CC(=O)Nc1ccc(C=CC(=O)N(Cc2ccc(N3CCN(C(C)=O)CC3)cc2)[C@@H](Cc2ccccc2)C(=O)N2CCN(Cc3ccc(N(C)C)cc3)CC2)cc1 , erythrocytic stages of P. falciparum NF54, pIC50 = 7.41

* * *

test system: erythrocytic stages of P. falciparum NF54; assay: Plasmodium falciparum in vitro assay, [3H] hypoxanthine incorporation; format: cell-based; settings: Plasmodium falciparum, Erythrocyte, 72 h; P. falciparum NF54 in human red blood cells; screening medium with human serum (50% final concentration); 48 h + 24 h incubation; read-out: IC50 on NF54 (with 50% Serum)
Can you tell me log10 IC50 for the items I'm about to list?
Hello, just confirming the data are log10 of IC50 with units of nM.

Take a look at these entries with their results.
So, CC(=O)N1CCN(c2ccc(CN(C(=O)C=Cc3ccc(C(C)C)cc3)[C@@H](Cc3ccccc3)C(=O)N3CCN(Cc4ccc(N(C)C)cc4)CC3)cc2)CC1 [Example 23] ? Its log10 IC50 was 0.98

So, CCOc1ccc(C=CC(=O)N(Cc2ccc(N3CCN(C(C)=O)CC3)cc2)[C@@H](Cc2ccccc2)C(=O)N2CCN(Cc3ccc(N(C)CCO)cc3)CC2)cn1 [Example 53] ? Its log10 IC50 was 1.09

So, CC(=O)N1CCN(c2ccc(CN(C(=O)C=Cc3ccc(C#N)cc3)[C@@H](Cc3ccccc3)C(=O)N3CCN(Cc4ccc(N(C)C)cc4)CC3)cc2)CC1 [Example 71] ? Its log10 IC50 was 1.79

So, COc1ccc(C=CC(=O)N(Cc2ccc(N3CCN(C(C)=O)CC3)cc2)[C@@H](Cc2ccccc2)C(=O)N2CCN(Cc3ccc(N(C)CCO)cc3)CC2)cn1 [Example 52] ? Its log10 IC50 was 1.52

So, CCCOc1ccc(C=CC(=O)N(Cc2ccc(N3CCN(C(C)=O)CC3)cc2)[C@@H](Cc2ccccc2)C(=O)N2CCN(Cc3ccc(S(C)(=O)=O)cc3)CC2)cc1 [Example 46] ? Its log10 IC50 was 0.04

So, CCS(=O)(=O)c1ccc(CN2CCN(C(=O)[C@H](Cc3ccccc3)N(Cc3ccc(N4CCN(C(C)=O)CC4)cc3)C(=O)C=Cc3ccc(C(F)(F)F)cc3)CC2)cc1 [Example 49] ? Its log10 IC50 was 0.49

Please give log10 IC50, item by item, for the list that follows.
1. CCCc1ccc(C=CC(=O)N(Cc2ccc(N3CCN(C(C)=O)CC3)cc2)[C@@H](Cc2ccccc2)C(=O)N2CCN(Cc3ccc(N(C)C)cc3)CC2)cc1 [Example 68]
2. CC(=O)N1CCN(c2ccc(CN(C(=O)C=Cc3ccc(C(F)(F)F)cc3)[C@@H](Cc3ccccc3)C(=O)N3CCN(Cc4ccc(OC(C)C)cc4)CC3)cc2)CC1 [Example 65]
3. CC(=O)N1CCN(c2ccc(CN(C(=O)C=Cc3ccc(F)cc3)[C@@H](Cc3ccccc3)C(=O)N3CCN(Cc4ccc(N(C)C)cc4)CC3)cc2)CC1 [Example 72]
4. CC(=O)N1CCN(c2ccc(CN(C(=O)C=Cc3ccc(S(C)(=O)=O)cc3)[C@@H](Cc3ccccc3)C(=O)N3CCN(Cc4ccc(Cl)cc4)CC3)cc2)CC1 [Example 36]

[0.90, 1.15, 1.96, 1.45]

Just for reference, patent US8889688B2 is where these values come from.
